The measurements presented in this section are drawn from patent US20260102359A1.

Where a name gives a salt, the structure may show the parent alone.
Entries with their measured Compound Myofibroblast Cytotoxicity Activity, system hDMFa myofibroblast cells:
measurement-name: Compound Myofibroblast Cytotoxicity Activity

{"compound": "O=c1[nH]c2ccccc2n1CCCN1CCC(n2c(=O)[nH]c3cc(Cl)ccc32)CC1 [Cmpd 378, Domperidone]", "observed-value": "++"}
{"compound": "C[C@H](Oc1cc(-c2cnn(C3CCNCC3)c2)cnc1N)c1c(Cl)ccc(F)c1Cl [Cmpd 29, (S)-Crizotinib]", "observed-value": "++++"}
{"compound": "C[N+](C)(C)CCOP(=O)(O)OP(=O)([O-])OC[C@H]1O[C@@H](n2ccc(N)nc2=O)[C@H](O)[C@@H]1O [Cmpd 271, Citicoline (sodium salt)]", "observed-value": "+++"}

----------
For reference, Compound Myofibroblast Cytotoxicity Activity measured on hDMFa myofibroblast cells:
Counter-ions that a name gives are not always drawn.
measurement-name: Compound Myofibroblast Cytotoxicity Activity

{"compound": "Nc1ccc(S(=O)(=O)Nc2nccs2)cc1", "target-of-assay": "hDMFa myofibroblast cells", "observed-value": "++++"}
{"compound": "Cc1cc(=O)oc2cc(O)ccc12", "target-of-assay": "hDMFa myofibroblast cells", "observed-value": "++++"}
{"compound": "CC(O)Cn1cnc2c1c(=O)n(C)c(=O)n2C (centres unmarked)", "target-of-assay": "hDMFa myofibroblast cells", "observed-value": "++"}
{"compound": "Nc1c2c(nc3ccccc13)CCCC2 [Cmpd 906, Tacrine hydrochloride]", "target-of-assay": "hDMFa myofibroblast cells", "observed-value": "++++"}
{"compound": "COC(=O)c1ccc2c(c1)NC(=O)/C2=C(\\Nc1ccc(N(C)C(=O)CN2CCN(C)CC2)cc1)c1ccccc1", "target-of-assay": "hDMFa myofibroblast cells", "observed-value": "++++"}
{"compound": "C=C(CC)C(=O)c1ccc(OCC(=O)O)c(Cl)c1Cl", "target-of-assay": "hDMFa myofibroblast cells", "observed-value": "+++"}
{"compound": "CC(C)C[C@H](N)C(=O)O", "target-of-assay": "hDMFa myofibroblast cells", "observed-value": "+++"}
{"compound": "CC/C=C\\C/C=C\\C/C=C\\C/C=C\\C/C=C\\C/C=C\\CCC(=O)O", "target-of-assay": "hDMFa myofibroblast cells", "observed-value": "+++"}
{"compound": "CC(=O)NO [Cmpd 81, Acetohydroxamic Acid]", "target-of-assay": "hDMFa myofibroblast cells", "observed-value": "++++"}
{"compound": "CCOC(=O)c1ccc(N)cc1", "target-of-assay": "hDMFa myofibroblast cells", "observed-value": "++"}
{"compound": "COC(=O)C1=C(C)NC(C)=C(C(=O)OC(C)C)C1c1cccc2nonc12 (centres unmarked)", "target-of-assay": "hDMFa myofibroblast cells", "observed-value": "++"}
{"compound": "CO[C@]12C[C@@H](COC(=O)c3cncc(Br)c3)CN(C)[C@@H]1Cc1cn(C)c3cccc2c13", "target-of-assay": "hDMFa myofibroblast cells", "observed-value": "++"}
{"compound": "CC/C=C\\C/C=C\\C/C=C\\C/C=C\\C/C=C\\CCCC(=O)O", "target-of-assay": "hDMFa myofibroblast cells", "observed-value": "+++"}
{"compound": "Fc1ccc([C@@H]2CCNC[C@H]2COc2ccc3c(c2)OCO3)cc1 [Cmpd 758, Paroxetine HCl]", "target-of-assay": "hDMFa myofibroblast cells", "observed-value": "+++"}
{"compound": "CCCCCCCCCC(=O)O [Cmpd 331, Decanoic acid]", "target-of-assay": "hDMFa myofibroblast cells", "observed-value": "+"}
{"compound": "CC(C)OC(=O)C(C(=O)OC(C)C)=C1SC=CS1 [Cmpd 632, Malotilate]", "target-of-assay": "hDMFa myofibroblast cells", "observed-value": "++"}
{"compound": "CC(C(=O)O)c1ccc(CC2CCCC2=O)cc1 (centres unmarked) [Cmpd 611, Loxoprofen Sodium]", "target-of-assay": "hDMFa myofibroblast cells", "observed-value": "++"}

----------
Where a name gives a salt, the structure may show the parent alone.
# Compound Myofibroblast Cytotoxicity Activity per entry for hDMFa myofibroblast cells
measurement-name: Compound Myofibroblast Cytotoxicity Activity

{"molecule": "O=c1ccc2cc(O)c(O)cc2o1", "observed-value": "++"}
{"molecule": "CN(C)CC/C=C1/c2ccccc2Sc2ccc(Cl)cc21", "observed-value": "+++"}
{"molecule": "CC(C)(CO)[C@H](O)C(=O)NCCCO", "observed-value": "++"}
{"molecule": "Nc1cccc2c1CN(C1CCC(=O)NC1=O)C2=O (centres unmarked) [Cmpd 578, Lenalidomide (CC-5013)]", "observed-value": "++"}
{"molecule": "CCCCCCCCCCCCCCCCOP(=O)([O-])OCC[N+](C)(C)C", "observed-value": "+++++"}
{"molecule": "COc1ccc2cc3[n+](cc2c1OC)CCc1cc2c(cc1-3)OCO2.[Cl-] [Cmpd 172, Berberine hydrochloride]", "observed-value": "++"}
{"molecule": "C=C1[C@H](CO)[C@@H](O)C[C@@H]1n1cnc2c(=O)[nH]c(N)nc21 [Cmpd 418, Entecavir Hydrate]", "observed-value": "+++"}
{"molecule": "CC(C)NCC(O)COc1ccc(CC(N)=O)cc1 (racemic) [Cmpd 14, (±)-Atenolol]", "observed-value": "+++"}
{"molecule": "COc1cc2c(cc1OC)C1CC(=O)C(CC(C)C)CN1CC2 (centres unmarked)", "observed-value": "+++"}
{"molecule": "Clc1ccc(CCC(Cn2ccnc2)Sc2c(Cl)cccc2Cl)cc1 (centres unmarked) [Cmpd 198, Butoconazole nitrate]", "observed-value": "+++"}
{"molecule": "Clc1ccc(C(Cn2ccnc2)OCc2ccsc2Cl)c(Cl)c1 (centres unmarked)", "observed-value": "+++"}
{"molecule": "CC(=O)c1c(C)c2cnc(Nc3ccc(N4CCNCC4)cn3)nc2n(C2CCCC2)c1=O.Cl [Cmpd 763, PD 0332991 (Palbociclib) HCl]", "observed-value": "++++"}
{"molecule": "CO[C@@H]1[C@@H](OC(N)=O)[C@@H](O)[C@H](Oc2ccc3c(O)c(NC(=O)c4ccc(O)c(CC=C(C)C)c4)c(=O)oc3c2C)OC1(C)C [Cmpd 724, Novobiocin Sodium]", "observed-value": "++++"}
{"molecule": "O=C(CO)[C@@H](O)[C@H](O)[C@H](O)CO [Cmpd 305, D-(−)-Fructose]", "observed-value": "++"}
{"molecule": "COC(=O)Nc1nc2ccc(C(=O)c3ccccc3)cc2[nH]1", "observed-value": "++++"}
{"molecule": "CN(C)CCC=C1c2ccccc2COc2ccccc21 [Cmpd 385, Doxepin (hydrochloride)]", "observed-value": "++"}
{"molecule": "CC(C)(C)c1nc(-c2cccc(NS(=O)(=O)c3c(F)cccc3F)c2F)c(-c2ccnc(N)n2)s1.CS(=O)(=O)O [Cmpd 311, Dabrafenib Mesylate (GSK-2118436)]", "observed-value": "++"}
{"molecule": "C[N+](C)(C)CCOC(N)=O.[Cl-] [Cmpd 214, Carbamoylcholine chloride]", "observed-value": "++"}
{"molecule": "CN(Cc1ccc(C(C)(C)C)cc1)Cc1cccc2ccccc12 [Cmpd 197, Butenafine HCl]", "observed-value": "+++"}
{"molecule": "CC(C)(C(=O)c1cccnc1)c1cccnc1", "observed-value": "++"}
{"molecule": "CCCN(CCC)C(=O)C1=Cc2ccc(-c3ccc(C(=O)N4CCCC4)cc3)cc2N=C(N)C1", "observed-value": "++"}
{"molecule": "O=P([O-])([O-])O.[Na+].[Na+] [Cmpd 874, Sodium phosphate dibasic]", "observed-value": "++++"}
{"molecule": "CC1CC(OC(=O)C(O)c2ccccc2)CC(C)(C)C1 (centres unmarked) [Cmpd 301, Cyclandelate]", "observed-value": "+++"}
{"molecule": "CNC1CCCN(c2c(F)cc3c(=O)c(C(=O)O)cn(C4CC4)c3c2OC)C1 (centres unmarked) [Cmpd 154, Balofloxacin Dihydrate]", "observed-value": "++"}
{"molecule": "C[C@]12CC[C@@H]3c4ccc(OS(=O)(=O)O)cc4CC[C@H]3[C@@H]1CCC2=O [Cmpd 432, Estropipate]", "observed-value": "+++"}
{"molecule": "Cc1c(C)c2c(c(C)c1O)CCC(C)(CCCC(C)CCCC(C)CCCC(C)C)O2 (racemic)", "observed-value": "++"}
{"molecule": "N[C@@H](CSCCCO)C(=O)O", "observed-value": "++++"}
{"molecule": "C=C(C)[C@@H]1CC=C(C)C(=O)C1 [Cmpd 24, (R)-(−)-Carvone]", "observed-value": "++"}
{"molecule": "Cc1nc(Nc2ncc(C(=O)Nc3c(C)cccc3Cl)s2)cc(N2CCN(CCO)CC2)n1 [Cmpd 327, Dasatinib hydrochloride]", "observed-value": "+++"}
{"molecule": "CNCCc1ccccn1.CS(=O)(=O)O.CS(=O)(=O)O [Cmpd 175, Betahistine mesylate]", "observed-value": "++"}
{"molecule": "CC(=O)CCCCn1c(=O)c2c(ncn2C)n(C)c1=O", "observed-value": "++++"}
{"molecule": "CCCCOc1ccc(C(=O)CCN2CCCCC2)cc1 [Cmpd 398, Dyclonine HCl]", "observed-value": "+++"}
